test system: Pseudomonas aeruginosa; assay: Minimum inhibitory concentration against Pseudomonas aeruginosa ATCC 15692 measured in succinate (SC) solid media; format: functional
Measured quantity: log10 MIC (log10 of the value in µg/mL)
Recall that a logarithmic scale is used here: each number is log10 of MIC in µg/mL.

What value of log10 MIC has been recorded for this entry: C[C@@H](O)[C@@H]1NC(=O)[C@H](CCCN(O)C=O)NC(=O)[C@@H](NC(=O)[C@](C)(CCCN(O)C=O)NC(=O)[C@@H](CO)NC(=O)[C@H](CCCN=C(N)N)NC(=O)[C@@H](CO)NC(=O)[C@@H]2CCNc3c(NC(=O)CCC(=O)NCCNC(=O)CCC(=O)OCOC(=O)N4CCN(c5cc6nc7c(cc6cc5F)c(=O)c(C(=O)O)cn7C)CC4)cc4cc(O)c(O)cc4[n+]32)CCCCNC(=O)[C@H]([C@@H](C)O)NC1=O
0.00

What value of log10 MIC has been recorded for this entry: C[C@@H](O)[C@@H]1NC(=O)[C@H](CCCN(O)C=O)NC(=O)[C@@H](NC(=O)[C@](C)(CCCN(O)C=O)NC(=O)[C@@H](CO)NC(=O)[C@H](CCCN=C(N)N)NC(=O)[C@@H](CO)NC(=O)[C@@H]2CCNc3c(NC(=O)CCC(=O)NCCNC(=O)CCC(=O)N4CCN(c5cc6nc7c(cc6cc5F)c(=O)c(C(=O)O)cn7C)CC4)cc4cc(O)c(O)cc4[n+]32)CCCCNC(=O)[C@H]([C@@H](C)O)NC1=O
0.90

What value of log10 MIC has been recorded for this entry: CCn1cc(C(=O)O)c(=O)c2cc(F)c(N3CCNCC3)cc21
-1.22

What value of log10 MIC has been recorded for this entry: Cn1cc(C(=O)O)c(=O)c2cc3cc(F)c(N4CCNCC4)cc3nc21
0.60

What value of log10 MIC has been recorded for this entry: CCn1cc(C(=O)O)c(=O)c2cc(F)c(N3CCN(C(=O)OCOC(=O)CCC(=O)NCCNC(=O)CCC(=O)Nc4cc5cc(O)c(O)cc5[n+]5c4NCC[C@H]5C(=O)N[C@H](CO)C(=O)N[C@@H](CCCN=C(N)N)C(=O)N[C@H](CO)C(=O)N[C@@](C)(CCCN(O)C=O)C(=O)N[C@H]4CCCCNC(=O)[C@H]([C@@H](C)O)NC(=O)[C@H]([C@@H](C)O)NC(=O)[C@H](CCCN(O)C=O)NC4=O)CC3)cc21
0.30

---

assay: Minimum effective dose required for the inhibition of Escherichia coli gyrase
Listing: MED of selected molecules
State the answer as a number, implicitly in µg/mL.

Recorded MED, per entry:
What value of MED has been recorded for this entry: Cn1cc(C(=O)O)c(=O)c2cc3cc(F)c(N4CCNCC4)cc3nc21
4

What value of MED has been recorded for this entry: C[C@H](O)[C@@H]1NC(=O)[C@H](CCCN(O)C=O)NC(=O)[C@@H](NC(=O)[C@](C)(CCCN(O)C=O)NC(=O)[C@@H](CO)NC(=O)[C@H](CCCN=C(N)N)NC(=O)[C@@H](CO)NC(=O)[C@@H]2CCNc3c(NC(=O)CCC(=O)NCCNC(=O)CCC(=O)OCOC(=O)N4CCN(c5cc6nc7c(cc6cc5F)c(=O)c(C(=O)O)cn7C)CC4)cc4cc(O)c(O)cc4[n+]32)CCCCNC(=O)[C@@H]([C@H](C)O)NC1=O
25

What value of MED has been recorded for this entry: CCn1cc(C(=O)O)c(=O)c2cc(F)c(N3CCN(C(=O)OCOC(=O)CCC(=O)NCCNC(=O)CCC(=O)Nc4cc5cc(O)c(O)cc5[n+]5c4NCC[C@H]5C(=O)N[C@@H](CO)C(=O)N[C@@H](CCCN=C(N)N)C(=O)N[C@H](CO)C(=O)N[C@@](C)(CCCN(O)C=O)C(=O)N[C@H]4CCCCNC(=O)[C@@H]([C@H](C)O)NC(=O)[C@H]([C@H](C)O)NC(=O)[C@H](CCCN(O)C=O)NC4=O)CC3)cc21
50

***
What value of MED has been recorded for this entry: C[C@H](O)[C@@H]1NC(=O)[C@H](CCCN(O)C=O)NC(=O)[C@@H](NC(=O)[C@](C)(CCCN(O)C=O)NC(=O)[C@@H](CO)NC(=O)[C@H](CCCN=C(N)N)NC(=O)[C@H](CO)NC(=O)[C@@H]2CCNc3c(NC(=O)CCC(=O)NCCNC(=O)CCC(=O)N4CCN(c5cc6nc7c(cc6cc5F)c(=O)c(C(=O)O)cn7C)CC4)cc4cc(O)c(O)cc4[n+]32)CCCCNC(=O)[C@@H]([C@H](C)O)NC1=O
25

What value of MED has been recorded for this entry: CCn1cc(C(=O)O)c(=O)c2cc(F)c(N3CCN(C(=O)CCC(=O)NCCNC(=O)CCC(=O)Nc4cc5cc(O)c(O)cc5[n+]5c4NCC[C@H]5C(=O)N[C@@H](CO)C(=O)N[C@@H](CCCN=C(N)N)C(=O)N[C@H](CO)C(=O)N[C@@](C)(CCCN(O)C=O)C(=O)N[C@H]4CCCCNC(=O)[C@@H]([C@H](C)O)NC(=O)[C@H]([C@H](C)O)NC(=O)[C@H](CCCN(O)C=O)NC4=O)CC3)cc21
50

Cited source: ChEMBL document CHEMBL1134513
